These entries and their values trace back to paper PMC3726324.

Reported stoichiometry N by item:
system_tested: the molecule itself
method_notes: not stated; oligomeric state of the purified or soluble N2C3 variants; method not named; not shown

- protein: "N2C3 Asn608Ser (BvgS residues 573-720, N608S) (domain or fragment, numbering from the initiation Met of full-length BvgS; source: E. coli BL21 (DE3), pASK-IBA35+, purified) AERALNDQLEFMRVLIDGTPNPIYVRDKEGRMLLCSDAYLDTFGVTADAVLGKTIPEANVVGDPALAREMHEFLLTRVAAEREPRFEDRDVTLHGRTRHVYQWTIPYGDSLGELKGIIGGWIDITERAELLRELHDAKESADAANRAK"
  stoichiometry N: 2
- protein: "N2C3 Asn608Ala (BvgS residues 573-720, N608A) (domain or fragment, numbering from the initiation Met of full-length BvgS; source: E. coli BL21 (DE3), pASK-IBA35+, soluble fraction; produced in very low amounts) AERALNDQLEFMRVLIDGTPNPIYVRDKEGRMLLCADAYLDTFGVTADAVLGKTIPEANVVGDPALAREMHEFLLTRVAAEREPRFEDRDVTLHGRTRHVYQWTIPYGDSLGELKGIIGGWIDITERAELLRELHDAKESADAANRAK"
  stoichiometry N: 2
- protein: "N2C3 Tyr596Ala + Asn631Ala (BvgS residues 573-720, Y596A + N631A) (domain or fragment, numbering from the initiation Met of full-length BvgS; source: E. coli BL21 (DE3), pASK-IBA35+, purified) AERALNDQLEFMRVLIDGTPNPIAVRDKEGRMLLCNDAYLDTFGVTADAVLGKTIPEAAVVGDPALAREMHEFLLTRVAAEREPRFEDRDVTLHGRTRHVYQWTIPYGDSLGELKGIIGGWIDITERAELLRELHDAKESADAANRAK"
  stoichiometry N: 2
